Please respond with reported log p for every item in the list.
- Test details: logP determination by reversed-phase HPLC (EEC Directive 79/831 Annex V.A8)
- Measurement setup: method [a]: pH 2.3, 0,1% aqueous phosphoric acid and acetonitrile, linear gradient 10 to 95% acetonitrile

Input line: For the molecule shown here, "Cc1c(NC(=O)c2cccc(Cl)c2C(=O)N[C@@H](C)CS(C)(=O)=O)ccc(C(F)(F)C(F)(F)F)c1F" , give the reported log p.
Output line: 2,82^[a]

Input line: For the molecule shown here, "CCSC[C@H](C)NC(=O)c1c(I)cccc1C(=O)Nc1ccc(C(F)(C(F)(F)F)C(F)(F)F)c(F)c1C" , give the reported log p.
Output line: 4,71^[a]

Input line: For the molecule shown here, "Cc1c(NC(=O)c2cccc(I)c2C(=O)N[C@@H](C)CS(C)(=O)=O)ccc(C(F)(F)C(F)(F)F)c1F" , give the reported log p.
Output line: 2,97^[a]

Input line: For the molecule shown here, "CSC[C@H](C)NC(=O)c1c(Br)cccc1C(=O)Nc1ccc(C(F)(F)C(F)(F)F)c(F)c1C" , give the reported log p.
Output line: 3,93^[a]

Input line: For the molecule shown here, Cc1cc(C(C(F)(F)F)C(F)(F)F)c(F)cc1NC(=O)c1cccc(Cl)c1C(=O)N[C@@H](C)C[S+](C)[O-] (stereo partly shown) , give the reported log p.
Output line: 2,58

Input line: For the molecule shown here, "CSC[C@H](C)NC(=O)c1c(I)cccc1C(=O)Nc1ccc(C(F)(C(F)(F)F)C(F)(F)F)c(F)c1C" , give the reported log p.
Output line: 4,41^[a]

Input line: For the molecule shown here, "Cc1cc(C(F)(C(F)(F)F)C(F)(F)F)ccc1NC(=O)c1cccc(I)c1C(=O)N[C@@H](C)CS(C)(=O)=O" , give the reported log p.
Output line: 3,18

---

- Test details: logP determination by reversed-phase HPLC (EEC Directive 79/831 Annex V.A8)
- Measurement setup: 0.1% aqueous phosphoric acid/acetonitrile, pH 2.3
Attribute measured: chromatographic logP
Write the value as a bare number.

Input line: For the compound shown here, CCSC[C@H](C)NC(=O)c1c(I)cccc1C(=O)Nc1ccc(C(F)(C(F)F)C(F)(F)F)cc1Cl (some centres unmarked) , give the reported chromatographic logP.
Output line: 4.2

Input line: For the compound shown here, CCS(=O)(=O)C[C@H](C)NC(=O)c1c(Br)cccc1C(=O)Nc1ccc(C(F)(C(F)F)C(F)(F)F)cc1Br (some centres unmarked) , give the reported chromatographic logP.
Output line: 3.06

---

- Test details: logP determination by reversed-phase HPLC (EEC Directive 79/831 Annex V.A8)
- Measurement setup: aqueous ammonium hydrogen carbonate/acetonitrile, pH 7.8
Please respond with reported chromatographic logP for every item in the list.
Write the value as a bare number.

Input line: For the molecule shown here, CCSC[C@H](C)NC(=O)c1c(I)cccc1C(=O)Nc1ccc(C(C(F)F)C(F)(F)F)cc1Br (stereo partly drawn) [compound 39] , give the reported chromatographic logP.
Output line: 3.8

Input line: For the molecule shown here, Cc1cc(C(F)(C(F)(F)F)C(F)(F)F)ccc1NC(=O)c1cccc(I)c1C(=O)N[C@@H](C)CS(C)(=O)=O [compound 1] , give the reported chromatographic logP.
Output line: 3.2

Input line: For the molecule shown here, CCSC[C@H](C)NC(=O)c1c(I)cccc1C(=O)Nc1ccc(C(F)(C(F)F)C(F)(F)F)cc1Cl (stereo partly drawn) [compound 34] , give the reported chromatographic logP.
Output line: 4.2

---

- Test details: logP determination by reversed-phase HPLC (EEC Directive 79/831 Annex V.A8)
- Measurement setup: method [c]: LC-MS, pH 7,8, 0,001 M aqueous ammonium hydrogen carbonate and acetonitrile, linear gradient 10 % to 95 % acetonitrile
- Excerpt: Die Messung der logP Werte erfolgte gemäß EEC Directive 79/831 Annex V.A8 durch HPLC (High Performance Liquid Chromatography) an reverser Phase Säulen (C 18), mit nachfolgenden Methoden: • ^[a] Die Bestimmung erfolgt bei pH 2.3 mit 0,1% wässriger Phosphorsäure und Acetonitril als Eluenten (linearer Gradient von 10 bis 95% Acetonitril). • ^[b] […]
Attribute measured: log p

Input line: For the compound shown here, Cc1cc(C(C(F)(F)F)C(F)(F)F)c(F)cc1NC(=O)c1cccc(Cl)c1C(=O)N[C@@H](C)C[S+](C)[O-] (some centres unmarked) , give the reported log p.
Output line: 2,51

Input line: For the compound shown here, Cc1cc(C(C(F)(F)F)C(F)(F)F)c(F)cc1NC(=O)c1cccc(Br)c1C(=O)N[C@@H](C)C[S+](C)[O-] (some centres unmarked) , give the reported log p.
Output line: 2,51

Input line: For the compound shown here, C[C@@H](CS(C)(=O)=O)NC(=O)c1c(I)cccc1C(=O)Nc1ccc(C(F)(C(F)F)C(F)(F)F)cc1F (some centres unmarked) , give the reported log p.
Output line: 2,76

Input line: For the compound shown here, CCSC[C@H](C)NC(=O)c1c(I)cccc1C(=O)Nc1ccc(C(F)(C(F)F)C(F)(F)F)cc1C (some centres unmarked) , give the reported log p.
Output line: 3,96^[a] 3,96^[c]

Input line: For the compound shown here, CCSC[C@H](C)NC(=O)c1c(I)cccc1C(=O)Nc1ccc(C(C(F)F)C(F)(F)F)cc1C (some centres unmarked) , give the reported log p.
Output line: 3,62

Input line: For the compound shown here, CCS(=O)(=O)C[C@H](C)NC(=O)c1c(I)cccc1C(=O)Nc1ccc(C(C(F)F)C(F)(F)F)cc1F (some centres unmarked) , give the reported log p.
Output line: 2,69

Input line: For the compound shown here, C[C@@H](CS(C)(=O)=O)NC(=O)c1c(I)cccc1C(=O)Nc1ccc(C(C(F)F)C(F)(F)F)cc1Cl (some centres unmarked) , give the reported log p.
Output line: 2,72

Input line: For the compound shown here, CCSC[C@H](C)NC(=O)c1c(I)cccc1C(=O)Nc1ccc(C(C(F)F)C(F)(F)F)cc1F (some centres unmarked) , give the reported log p.
Output line: 3,57^[a] 3,57^[c]

Input line: For the compound shown here, C[C@@H](CS(C)(=O)=O)NC(=O)c1c(I)cccc1C(=O)Nc1ccc(C(C(F)F)C(F)(F)F)cc1Br (some centres unmarked) , give the reported log p.
Output line: 2,76

Input line: For the compound shown here, Cc1cc(C(F)(C(F)F)C(F)(F)F)ccc1NC(=O)c1cccc(Cl)c1C(=O)N[C@@H](C)CS(C)(=O)=O (some centres unmarked) , give the reported log p.
Output line: 2,64

Input line: For the compound shown here, CCSC[C@H](C)NC(=O)c1c(I)cccc1C(=O)Nc1ccc(C(C(F)F)C(F)(F)F)cc1Cl (some centres unmarked) , give the reported log p.
Output line: 3,79

Input line: For the compound shown here, CSC[C@H](C)NC(=O)c1c(I)cccc1C(=O)Nc1ccc(C(C(F)F)C(F)(F)F)cc1Br (some centres unmarked) , give the reported log p.
Output line: 3,54

Input line: For the compound shown here, CCS(=O)(=O)C[C@H](C)NC(=O)c1c(I)cccc1C(=O)Nc1ccc(C(F)(C(F)F)C(F)(F)F)cc1Cl (some centres unmarked) , give the reported log p.
Output line: 3,18

Input line: For the compound shown here, Cc1c(NC(=O)c2cccc(Cl)c2C(=O)N[C@@H](C)C[S+](C)[O-])ccc(C(C(F)(F)F)C(F)(F)F)c1F (some centres unmarked) , give the reported log p.
Output line: 2,41

Input line: For the compound shown here, CCS(=O)(=O)C[C@H](C)NC(=O)c1c(I)cccc1C(=O)Nc1ccc(C(C(F)F)C(F)(F)F)cc1Br (some centres unmarked) , give the reported log p.
Output line: 2,92

Input line: For the compound shown here, CCS(=O)(=O)C[C@H](C)NC(=O)c1c(I)cccc1C(=O)Nc1ccc(C(F)(C(F)F)C(F)(F)F)cc1F (some centres unmarked) , give the reported log p.
Output line: 2,94

Input line: For the compound shown here, C[C@@H](CS(C)(=O)=O)NC(=O)c1c(I)cccc1C(=O)Nc1ccc(C(C(F)F)C(F)(F)F)cc1F (some centres unmarked) , give the reported log p.
Output line: 2,54

---

Please respond with reported chromatographic logP for every item in the list.
- Test details: logP determination by reversed-phase HPLC (EEC Directive 79/831 Annex V.A8)
- Measurement setup: pH 2.3
Write the value as a bare number.

Input line: For the compound shown here, Cc1c(NC(=O)c2cccc(Cl)c2C(=O)N[C@@H](C)C[S+](C)[O-])ccc(C(C(F)(F)F)C(F)(F)F)c1F (some centres unmarked) , give the reported chromatographic logP.
Output line: 2.5

Input line: For the compound shown here, C[C@@H](CS(C)(=O)=O)NC(=O)c1c(I)cccc1C(=O)Nc1ccc(C(C(F)F)C(F)(F)F)cc1F (some centres unmarked) , give the reported chromatographic logP.
Output line: 2.5

---

- Test details: logP determination by reversed-phase HPLC (EEC Directive 79/831 Annex V.A8)
- Measurement setup: method [a]: pH 2.3, 0,1% aqueous phosphoric acid and acetonitrile, linear gradient 10 to 95% acetonitrile
Attribute measured: log p

Input line: For the compound shown here, CCS(=O)(=O)C[C@H](C)NC(=O)c1c(I)cccc1C(=O)Nc1ccc(C(F)(C(F)F)C(F)(F)F)cc1Cl (stereo partly shown) , give the reported log p.
Output line: 3,12

Input line: For the compound shown here, Cc1cc(C(F)(C(F)F)C(F)(F)F)ccc1NC(=O)c1cccc(Cl)c1C(=O)N[C@@H](C)CS(C)(=O)=O (stereo partly shown) , give the reported log p.
Output line: 2,61

Input line: For the compound shown here, Cc1c(NC(=O)c2cccc(I)c2C(=O)N[C@@H](C)C[S+](C)[O-])ccc(C(F)(F)C(F)(F)F)c1F (stereo partly shown) , give the reported log p.
Output line: 2,5^[a]

Input line: For the compound shown here, "CSC[C@H](C)NC(=O)c1c(I)cccc1C(=O)Nc1ccc(C(F)(F)C(F)(F)F)c(F)c1C" , give the reported log p.
Output line: 4,04^[a]

Input line: For the compound shown here, CCS(=O)(=O)C[C@H](C)NC(=O)c1c(I)cccc1C(=O)Nc1ccc(C(C(F)F)C(F)(F)F)cc1Br (stereo partly shown) , give the reported log p.
Output line: 2,87

Input line: For the compound shown here, "CCS(=O)(=O)C[C@H](C)NC(=O)c1c(Cl)cccc1C(=O)Nc1ccc(C(F)(F)C(F)(F)F)c(Cl)c1C" , give the reported log p.
Output line: 3,14^[a]

Input line: For the compound shown here, C[C@@H](CS(C)(=O)=O)NC(=O)c1c(I)cccc1C(=O)Nc1ccc(C(C(F)F)C(F)(F)F)cc1Br (stereo partly shown) , give the reported log p.
Output line: 2,71
